- test details: antifungal drug efflux pump blockers, triplex strains – S. cerevisiae, Nile Red, multiplex, primary screen (AID 485275);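 further: Nile Red retained in pooled yeast measured as flow cytometry median fluorescence; higher means more Nile Red kept so more efflux inhibition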
- assay context: S. cerevisiae Candida pump triplex, at 10 µM
The whole screen tested about 330,000 compounds, of which about 1,400 (0.42%) were called active.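 How the source made its calls: active means plate passing quality check with inhibition over a set limit, or well fluorescence over plate mean plus 4 SD; inactive means the rest.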 Shown is part of a subset that was picked to be rich in actives.
// one of True = active, False = inactive, no free text

Here are 9 molecules together with their reported answers.
NC(=O)c1oc2ccccc2c1NC(=O)Cc1ccccc1; False
Cc1cccc(NC(=O)COc2ccc(Br)cc2C)n1; False
O=S(=O)(NCC1OCCc2ccccc21)c1ccccc1 (stereo not given); False
Cc1c(CCO)sc[n+]1CC(=O)OC12CC3CC(CC(C3)C1)C2; False
Cc1c(CCOC(=O)c2cc([N+](=O)[O-])ccc2Cl)sc[n+]1CCCCS(=O)(=O)[O-]; False
CC[C@]1(C(=O)OC)[C@H]2C(=O)N(Cc3ccccc3)C(=O)[C@H]2[C@H]2CN=C(SCc3ccc(Cl)cc3)N21; False
COc1ccc(C2=NN(C(=O)c3ccccc3C(=O)O)C(c3ccccc3O)C2)cc1 (stereo not given); False
CC12CCC(C(=O)N(NC(=O)c3ccccc3O)C1=O)C2(C)C (stereo not given); False
CCOc1ccc2nc(Cl)c(C3CC(c4ccccc4)=NN3C(=O)c3cccs3)cc2c1 (stereo not given); True

Continue with the next molecule.
Dear colleague, could you share the recorded outcome for CCOc1ccccc1C1CC(c2cccc(NS(C)(=O)=O)c2)=NN1C(=O)c1ccccc1 (stereo not given) when you have a moment? False

The reported numbers originate from PubChem BioAssay AID485275.
